Reported IC50 by item:
# measurement.target: Avi-KRAS G12D (1-169) GppNHp/RAF1 RBD-3×FLAG (52-151) (Homo sapiens, UniProt P01116, G12D)
# Construct: Avi-KRAS G12D (1-169) GppNHp
# Sequence (P01116 1-169 isoform P01116-2 G12D limits assumed): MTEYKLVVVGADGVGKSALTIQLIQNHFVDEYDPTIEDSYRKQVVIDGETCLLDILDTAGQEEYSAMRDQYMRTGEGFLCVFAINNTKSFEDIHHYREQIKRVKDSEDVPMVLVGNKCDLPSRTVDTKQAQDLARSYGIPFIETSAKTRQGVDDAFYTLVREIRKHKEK
# experiment.description: HTRF Raf1-KRAS G12D-GppNHp disruption assay
# protocol.conditions: 1 h incubation

C[C@H]1CNCCN1c1nc(OC[C@@]23CCCN2C[C@@H](F)C3)nc2c(F)c(-c3ccc(F)c4sc(N)nc34)c(C(F)(F)F)cc12 [Compound 222] = 1 to 10 µM
CN(c1nc(OC[C@@H]2CCCN2CCF)nc2c(F)c(-c3ccc(F)c4sc(N)nc34)c(C(F)(F)F)cc12)C1CNC1 [Compound 166] = 10 to 30 µM
Nc1nc2c(-c3c(C(F)(F)F)cc4c(NC5CC6CC[C@@H](C5)N6)nc(OCC56CCCN5CCC6)nc4c3F)ccc(F)c2s1 (stereo partly shown) [Compound 263] = 1 to 10 µM
Nc1nc2c(-c3c(C(F)(F)F)cc4c(N5CC6CC(C5)N6)nc(OCC56CCCN5CCC6)nc4c3F)ccc(F)c2s1 [Compound 185] = 0.1 to 1 µM

Query block: Tell me the measured IC50 of CN1CCC[C@H]1COc1nc(NCCN)c2cc(Cl)c(-c3ccc(F)c4nc(N)sc34)c(F)c2n1 [Compound 107] , please.
Result block: 10 to 30 µM

Query block: Tell me the measured IC50 of Nc1nc2c(-c3c(OC(F)F)cc4c(N5CCNCC5)nc(OCC56CCCN5CCC6)nc4c3F)ccc(F)c2s1 [Compound 234] , please.
Result block: 1 to 10 µM

Query block: Tell me the measured IC50 of CN1CCC[C@H]1COc1nc(N2CCNCC2)c2cc(-c3cnn(C)c3)c(-c3ccc(F)c4sc(N)nc34)c(F)c2n1 [Compound 176] , please.
Result block: 10 to 30 µM

----------
# System: pERK in GP2d cells (KRAS G12D)
# experiment.description: Cell-based pERK HTRF assay
# protocol.conditions: GP2d, 1 h, 60 min incubation
pIC50: −log10 of the molar value.
parameter: pIC50

Query block: Tell me the measured pIC50 of Nc1nc2c(-c3c(C(F)F)cc4c(N5C[C@H]6CC[C@@H](C5)N6)nc(OC[C@@]56CCCN5C[C@H](F)C6)nc4c3Cl)ccc(F)c2s1 , please.
Result block: ≥ 7.00

Query block: Tell me the measured pIC50 of Nc1nc2c(-c3c(C(F)F)cc4c(N5C[C@H]6CC[C@@H](C5)N6)nc(OC[C@@]56CCCN5C[C@H](F)C6)nc4c3F)ccc(F)c2s1 , please.
Result block: ≥ 7.00

Query block: Tell me the measured pIC50 of Nc1nc2c(-c3cc4nc(OC[C@@]56CCCN5C[C@H](F)C6)nc(O[C@H]5CNC[C@@H]5F)c4cc3C(F)(F)F)ccc(F)c2s1 , please.
Result block: < 6.00

Query block: Tell me the measured pIC50 of C[C@@H]1CN(c2nc(OC[C@@]34CCCN3C[C@H](F)C4)nc3c(F)c(-c4ccc(F)c5sc(N)c(C#N)c45)c(C(F)(F)F)cc23)[C@@H](C)CN1 , please.
Result block: ≥ 7.00

Query block: Tell me the measured pIC50 of Nc1nc2c(-c3c(C(F)(F)F)cc4c(NC5CNC5)nc(OC[C@@]56CCCN5C[C@H](F)C6)nc4c3F)ccc(F)c2s1 , please.
Result block: < 6.00

Query block: Tell me the measured pIC50 of N#Cc1c(N)sc2c(F)ccc(-c3c(OC(F)(F)F)cc4c(N5CC6CCC(C5)N6)nc(OC[C@@]56CCCN5C[C@H](F)C6)nc4c3F)c12 , please.
Result block: ≥ 7.00

----------
# measurement.target: Avi-KRAS G12D (1-169) GppNHp/RAF1 RBD-3×FLAG (52-151) (Homo sapiens, UniProt P01116, G12D)
# Construct: Avi-KRAS G12D (1-169) GppNHp
# experiment.description: HTRF Raf1-KRAS G12D-GppNHp disruption assay
# protocol.conditions: 1 h incubation
Reported IC50 by item:

CN(c1nc(OC[C@@]23CCCN2C[C@H](F)C3)nc2c(F)c(-c3ccc(F)c4sc(N)c(C#N)c34)c(F)cc12)[C@H]1CCNC1 [Compound 361] = 100 to 1000 nM

Query block: Tell me the measured IC50 of Nc1nc2c(-c3c(C(F)(F)F)cc4c(N5CC6CCC5CN6)nc(OC[C@@]56CCCN5C[C@H](F)C6)nc4c3F)ccc(F)c2s1 (stereo partly shown) [Compound 223] , please.
Result block: 100 to 1000 nM

Query block: Tell me the measured IC50 of C[C@H]1CN(c2nc(OC[C@@H]3CCCN3C)nc3c(F)c(-c4ccc(F)c5sc(N)nc45)c(Cl)cc23)CCN1 [Compound 84] , please.
Result block: 10000 to 30000 nM

Query block: Tell me the measured IC50 of Nc1nc2c(-c3c(C(F)(F)F)cc4c(N5CCNCC5)nc(OC[C@@]56CCCN5C[C@H](F)C6)nc4c3F)ccc(F)c2s1 [Compound 206] , please.
Result block: 100 to 1000 nM

Query block: Tell me the measured IC50 of CO[C@@H]1CN(C)C[C@H]1Oc1nc(NCCN)c2cc(Cl)c(-c3ccc(F)c4sc(N)nc34)c(F)c2n1 [Compound 60] , please.
Result block: 10000 to 30000 nM

Query block: Tell me the measured IC50 of CN1CCC[C@H]1COc1nc(NC2CN(C(=O)CN)C2)c2cc(-c3ccoc3)c(-c3ccc(F)c4sc(N)nc34)c(F)c2n1 [Compound 146] , please.
Result block: 1000 to 10000 nM

Query block: Tell me the measured IC50 of CN(c1nc(OCC23CCCN2CCC3)nc2c(F)c(-c3ccc(F)c4sc(N)nc34)c(C(F)(F)F)cc12)[C@@H]1CCN(C(=O)C2CN2)C1 (stereo partly shown) [Compound 230] , please.
Result block: 1000 to 10000 nM

Query block: Tell me the measured IC50 of Nc1nc2c(-c3cc4nc(OC[C@@]56CCCN5C[C@H](F)C6)nc(N5CC6CCC(C5)N6)c4cc3C(F)(F)F)c(F)cc(F)c2s1 [Compound 319] , please.
Result block: 100 to 1000 nM

Query block: Tell me the measured IC50 of Nc1nc2c(-c3c(C(F)(F)F)cc4c(N[C@H]5CCC6(CNC6)C5)nc(OCC56CCCN5CCC6)nc4c3F)ccc(F)c2s1 [Compound 335] , please.
Result block: 100 to 1000 nM

Query block: Tell me the measured IC50 of CN1CCC[C@H]1COc1nc(N(C2CC2)C2CNC2)c2cc(Cl)c(-c3ccc(F)c4sc(N)nc34)c(F)c2n1 [Compound 152] , please.
Result block: 10000 to 30000 nM

Query block: Tell me the measured IC50 of CO[C@@H]1CN(C)C[C@H]1Oc1nc(NC2CNC2)c2cc(Cl)c(-c3ccc(F)c4sc(N)nc34)c(F)c2n1 [Compound 68] , please.
Result block: 10000 to 30000 nM

Query block: Tell me the measured IC50 of Nc1nc2c(-c3c(Cl)cc4c(N5CC6CNC(C6)C5)ncnc4c3F)ccc(F)c2s1 (stereo not shown) [Compound 243] , please.
Result block: 10000 to 30000 nM

Query block: Tell me the measured IC50 of NCC(=O)N1CC(Nc2nc(OCC34CCCN3CCC4)nc3c(F)c(-c4ccc(F)c5sc(N)nc45)c(C(F)(F)F)cc23)C1 [Compound 187] , please.
Result block: 100 to 1000 nM

----------
Reported IC50 by item:
# measurement.target: Avi-KRAS G12D (1-169) GppNHp/RAF1 RBD-3×FLAG (52-151) (Homo sapiens, UniProt P01116, G12D)
# Construct: Avi-KRAS G12D (1-169) GppNHp
# experiment.description: HTRF Raf1-KRAS G12D-GppNHp disruption assay
# Format: biochemical
# protocol.conditions: 1 h incubation

Observe how each entry below is paired with its result.
C[C@@H]1CN(c2nc(OC[C@]34CCCN3C[C@H](F)C4)nc3c(F)c(-c4ccc(F)c5sc(N)nc45)c(C(F)(F)F)cc23)CCN1 [Compound 210] = 1000 to 10000 nM
CN(c1nc(OC[C@@]23CCCN2C[C@H](F)C3)nc2c(F)c(-c3ccc(F)c4sc(N)nc34)c(C(F)(F)F)cc12)[C@H]1CNC[C@H]1F [Compound 290] = 100 to 1000 nM

From here, focus on the item given below.
Query block: Tell me the measured IC50 of Nc1nc2c(-c3c(OC(F)(F)F)cc4c(N5CC6CCC(C5)N6)nc(OCC56CCCN5CCC6)nc4c3F)ccc(F)c2s1 [Compound 231] , please.
Result block: 1000 to 10000 nM
